Reported relative viability values follow for various compounds
- Test system: NCI-H1395
- Experiment Summary: relative viability (nuclei count vs DMSO), 5 days (fraction); higher = more cells survive
- Reported Conditions: first compound 0.3162 µM

# Compound, relative viability
measured = [
    ("CCN(CC)CCCCNc1ncc2cc(-c3cc(OC)cc(OC)c3)c(NC(=O)NC(C)(C)C)nc2n1 + NC(=O)Nc1cc(-c2cccc(F)c2)sc1C(=O)N[C@H]1CCCNC1 [AZD7762] (partner 0.2 µM)", 0.392),
    ("O=c1cc(N2CCOCC2)oc2c(-c3cccc4c3sc3ccccc34)cccc12 + CC(=O)c1c(C)c2cnc(Nc3ccc(N4CCNCC4)cn3)nc2n(C2CCCC2)c1=O [Palbociclib] (partner 0.5 µM)", 0.631),
    ("CCN(CC)CCCCNc1ncc2cc(-c3cc(OC)cc(OC)c3)c(NC(=O)NC(C)(C)C)nc2n1 + CC(=O)c1c(C)c2cnc(Nc3ccc(N4CCNCC4)cn3)nc2n(C2CCCC2)c1=O [Palbociclib] (partner 0.5 µM)", 0.546),
]

====

- System: LXF-289
- Experiment Summary: relative viability (nuclei count vs DMSO), 5 days (fraction); higher = more cells survive
- Reported Conditions: first compound 0.1 µM
Metric Name: relative viability

# Compound, Metric Name, Readout Number
records = [
    ("O=c1cc(N2CCOCC2)oc2c(-c3cccc4c3sc3ccccc34)cccc12 + CS(=O)(=O)N1CCN(Cc2cc3nc(-c4cccc5[nH]ncc45)nc(N4CCOCC4)c3s2)CC1 [Pictilisib] (partner 1 µM)", "relative viability", 0.881),
    ("O=c1cc(N2CCOCC2)oc2c(-c3cccc4c3sc3ccccc34)cccc12 + CC(=O)Nc1cccc(-n2c(=O)n(C3CC3)c(=O)c3c(Nc4ccc(I)cc4F)n(C)c(=O)c(C)c32)c1 [Trametinib] (partner 0.02 µM)", "relative viability", 0.662),
    ("CCN(CC)CCCCNc1ncc2cc(-c3cc(OC)cc(OC)c3)c(NC(=O)NC(C)(C)C)nc2n1 + Nc1ncn([C@H]2C[C@H](O)[C@@H](CO)O2)c(=O)n1 [Decitabine] (partner 2 µM)", "relative viability", 0.363),
    ("CCN(CC)CCCCNc1ncc2cc(-c3cc(OC)cc(OC)c3)c(NC(=O)NC(C)(C)C)nc2n1 + Cc1cc(Nc2cc(N3CCN(C)CC3)nc(Sc3ccc(NC(=O)C4CC4)cc3)n2)n[nH]1 [Tozasertib] (partner 0.1 µM)", "relative viability", 0.268),
]

====

Reported relative viability values follow for various molecules
- System: NCI-H1650
- Experiment Summary: relative viability (nuclei count vs DMSO), 5 days (fraction); higher = more cells survive
- Reported Conditions: first compound 6.325 µM

# Molecule, Study Target, relative viability
rows = [
    ("COCC1(CO)C(=O)C2CCN1CC2 (stereo not given) [PRIMA-1MET] + CS(=O)(=O)N1CCN(Cc2cc3nc(-c4cccc5[nH]ncc45)nc(N4CCOCC4)c3s2)CC1 [Pictilisib] (partner 1 µM)", "NCI-H1650", 0.527),
    ("COCC1(CO)C(=O)C2CCN1CC2 (stereo not given) [PRIMA-1MET] + CC(=O)c1c(C)c2cnc(Nc3ccc(N4CCNCC4)cn3)nc2n(C2CCCC2)c1=O [Palbociclib] (partner 0.5 µM)", "NCI-H1650", 0.315),
    ("COCC1(CO)C(=O)C2CCN1CC2 (stereo not given) [PRIMA-1MET] + Cc1cc(Nc2cc(N3CCN(C)CC3)nc(Sc3ccc(NC(=O)C4CC4)cc3)n2)n[nH]1 [Tozasertib] (partner 0.1 µM)", "NCI-H1650", 0.537),
    ("COCC1(CO)C(=O)C2CCN1CC2 (stereo not given) [PRIMA-1MET] + CC(C)C[C@H](NC(=O)[C@H](Cc1ccccc1)NC(=O)c1cnccn1)B(O)O [Bortezomib] (partner 0.002 µM)", "NCI-H1650", 0.188),
    ("COCC1(CO)C(=O)C2CCN1CC2 (stereo not given) [PRIMA-1MET] + O=C(c1cc(Cc2n[nH]c(=O)c3ccccc23)ccc1F)N1CCN(C(=O)C2CC2)CC1 [Olaparib] (partner 8 µM)", "NCI-H1650", 0.709),
]

====

- System: BEN
- Experiment Summary: relative viability (nuclei count vs DMSO), 5 days (fraction); higher = more cells survive
- Reported Conditions: first compound 0.253 µM
Reported relative viability values follow for various molecules

# Molecule, relative viability
data = [
    ("COc1nc(C)cnc1NS(=O)(=O)c1cccnc1-c1ccc(-c2nnco2)cc1 [Zibotentan] + CC(C)C[C@H](NC(=O)[C@H](Cc1ccccc1)NC(=O)c1cnccn1)B(O)O [Bortezomib] (partner 0.002 µM)", 0.824),
    ("COc1nc(C)cnc1NS(=O)(=O)c1cccnc1-c1ccc(-c2nnco2)cc1 [Zibotentan] + CS(=O)(=O)CCNCc1ccc(-c2ccc3ncnc(Nc4ccc(OCc5cccc(F)c5)c(Cl)c4)c3c2)o1 [Lapatinib] (partner 2 µM)", 0.721),
    ("COc1nc(C)cnc1NS(=O)(=O)c1cccnc1-c1ccc(-c2nnco2)cc1 [Zibotentan] + C[C@]1(O)C[C@@H](c2nc(-c3ccc4ccc(-c5ccccc5)nc4c3)c3c(N)nccn32)C1 [Linsitinib] (partner 1 µM)", 0.773),
]

====

- Tested on: NCI-H2170
- Experiment Summary: relative viability (nuclei count vs DMSO), 5 days (fraction); higher = more cells survive
- Reported Conditions: first compound 2.53 µM
Reported relative viability values follow for various compounds

# Compound, Study Target, relative viability
records = [
    ("O=c1cc(-c2cccc3c2Sc2ccccc2S3)oc(N2CCOCC2)c1 + CC(=O)Nc1cccc(-n2c(=O)n(C3CC3)c(=O)c3c(Nc4ccc(I)cc4F)n(C)c(=O)c(C)c32)c1 [Trametinib] (partner 0.02 µM)", "NCI-H2170", 0.816),
    ("COc1nc(C)cnc1NS(=O)(=O)c1cccnc1-c1ccc(-c2nnco2)cc1 [Zibotentan] + CS(=O)(=O)CCNCc1ccc(-c2ccc3ncnc(Nc4ccc(OCc5cccc(F)c5)c(Cl)c4)c3c2)o1 [Lapatinib] (partner 2 µM)", "NCI-H2170", 0.285),
    ("COc1nc(C)cnc1NS(=O)(=O)c1cccnc1-c1ccc(-c2nnco2)cc1 [Zibotentan] + CS(=O)(=O)N1CCN(Cc2cc3nc(-c4cccc5[nH]ncc45)nc(N4CCOCC4)c3s2)CC1 [Pictilisib] (partner 1 µM)", "NCI-H2170", 0.368),
    ("O=c1cc(-c2cccc3c2Sc2ccccc2S3)oc(N2CCOCC2)c1 + COc1cc2c(Oc3ccc(NC(=O)C4(C(=O)Nc5ccc(F)cc5)CC4)cc3F)ccnc2cc1OCCCN1CCOCC1 [Foretinib] (partner 0.25 µM)", "NCI-H2170", 0.999),
]

====

Reported relative viability values follow for various compounds
- System: CAL-12T
- Experiment Summary: relative viability (nuclei count vs DMSO), 5 days (fraction); higher = more cells survive
- Reported Conditions: first compound 0.3162 µM

# Compound, relative viability
data = [
    ("CCN(CC)CCCCNc1ncc2cc(-c3cc(OC)cc(OC)c3)c(NC(=O)NC(C)(C)C)nc2n1 + O=C(CCCCCCC(=O)Nc1ccccc1)NO [Vorinostat] (partner 1 µM)", 0.778),
    ("CCN(CC)CCCCNc1ncc2cc(-c3cc(OC)cc(OC)c3)c(NC(=O)NC(C)(C)C)nc2n1 + Cc1nc(Nc2ncc(C(=O)Nc3c(C)cccc3Cl)s2)cc(N2CCN(CCO)CC2)n1 [Dasatinib] (partner 0.075 µM)", 0.371),
    ("CCN(CC)CCCCNc1ncc2cc(-c3cc(OC)cc(OC)c3)c(NC(=O)NC(C)(C)C)nc2n1 + CS(=O)(=O)CCNCc1ccc(-c2ccc3ncnc(Nc4ccc(OCc5cccc(F)c5)c(Cl)c4)c3c2)o1 [Lapatinib] (partner 2 µM)", 0.674),
    ("CCN(CC)CCCCNc1ncc2cc(-c3cc(OC)cc(OC)c3)c(NC(=O)NC(C)(C)C)nc2n1 + COc1cc2c(Oc3ccc(NC(=O)C4(C(=O)Nc5ccc(F)cc5)CC4)cc3F)ccnc2cc1OCCCN1CCOCC1 [Foretinib] (partner 0.25 µM)", 1.23),
    ("CCN(CC)CCCCNc1ncc2cc(-c3cc(OC)cc(OC)c3)c(NC(=O)NC(C)(C)C)nc2n1 + O=C(c1cc(Cc2n[nH]c(=O)c3ccccc23)ccc1F)N1CCN(C(=O)C2CC2)CC1 [Olaparib] (partner 8 µM)", 0.845),
]

====

- Test system: NCI-H596
- Experiment Summary: relative viability (nuclei count vs DMSO), 5 days (fraction); higher = more cells survive
- Reported Conditions: first compound 6.325 µM

# Molecule, relative viability
measured = [
    ("COCC1(CO)C(=O)C2CCN1CC2 (stereo unspecified) [PRIMA-1MET] + CS(=O)(=O)CCNCc1ccc(-c2ccc3ncnc(Nc4ccc(OCc5cccc(F)c5)c(Cl)c4)c3c2)o1 [Lapatinib] (partner 2 µM)", 1.22),
    ("COCC1(CO)C(=O)C2CCN1CC2 (stereo unspecified) [PRIMA-1MET] + Cc1cc(Nc2cc(N3CCN(C)CC3)nc(Sc3ccc(NC(=O)C4CC4)cc3)n2)n[nH]1 [Tozasertib] (partner 0.1 µM)", 1.02),
    ("COCC1(CO)C(=O)C2CCN1CC2 (stereo unspecified) [PRIMA-1MET] + COc1cc2c(Oc3ccc(NC(=O)C4(C(=O)Nc5ccc(F)cc5)CC4)cc3F)ccnc2cc1OCCCN1CCOCC1 [Foretinib] (partner 0.25 µM)", 0.318),
    ("COCC1(CO)C(=O)C2CCN1CC2 (stereo unspecified) [PRIMA-1MET] + NC(=O)Nc1cc(-c2cccc(F)c2)sc1C(=O)N[C@H]1CCCNC1 [AZD7762] (partner 0.2 µM)", 1.22),
    ("COCC1(CO)C(=O)C2CCN1CC2 (stereo unspecified) [PRIMA-1MET] + CS(=O)(=O)N1CCN(Cc2cc3nc(-c4cccc5[nH]ncc45)nc(N4CCOCC4)c3s2)CC1 [Pictilisib] (partner 1 µM)", 0.379),
    ("COCC1(CO)C(=O)C2CCN1CC2 (stereo unspecified) [PRIMA-1MET] + C[C@]1(O)C[C@@H](c2nc(-c3ccc4ccc(-c5ccccc5)nc4c3)c3c(N)nccn32)C1 [Linsitinib] (partner 1 µM)", 1.09),
]
